test-description: Cytotoxicity against mouse RAW264.7 cells assessed as growth inhibition at 25 ug/ml after 48 hrs by MTT assay relative to control
Assay type: cell-based
experimental-setup: read-out: GI
Below: a set of entries, each annotated with reported inhibition at 48 h, 25 ug/ml.
Write the answer as a number in %, unit excluded.

# count of solved cases: 5
Q) If you can, please state the reported inhibition at 48 h, 25 ug/ml value of O=C(NC12CC3CC(CC(C3)C1)C2)c1c(-c2ccccc2)c2ccccc2[nH]c1=O .
A) 16.2

Q) Subsequent entry: O=C(Nc1ccc(Br)cc1)c1c(-c2ccccc2)c2ccccc2n(Cc2ccccc2)c1=O
A) 14.6

Q) Subsequent entry: O=C(Nc1ccc(Cl)cc1)c1c(-c2ccccc2)c2cc(Cl)ccc2n(Cc2cccc(F)c2)c1=O
A) 24.7

Q) Subsequent entry: O=C(Nc1ccc(N2CCOCC2)cc1)c1c(-c2ccccc2)c2cc(Cl)ccc2[nH]c1=O
A) 18.6

Q) Subsequent entry: Cc1cc(C)c(NC(=O)c2c(-c3ccccc3)c3cc(Cl)ccc3n(Cc3cccc(F)c3)c2=O)c(C)c1
A) 22.4

Next, consider the following compound.
Q) If you can, please state the reported inhibition at 48 h, 25 ug/ml value of COC(=O)C(Cc1c[nH]c2ccccc12)NC(=O)c1c(-c2ccccc2)c2cc(Cl)ccc2[nH]c1=O (stereo unspecified) .
A) 21.5
